- Tested on: PPARa:RXRa (NR concentration 270 nM, RXRa partner concentration 90 nM)
- TEST_NAME: PBM binding z-score (relative to random genomic background probes); higher = stronger binding; sequences stand for … in GC…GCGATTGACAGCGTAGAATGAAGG
EXPERIMENTAL_READOUT: PBM binding z-score
# answer = number (no unit)

Below are worked cases with known answers.
ITEM_SEQUENCE | PBM binding z-score
TCTTGTAGATCAATAGAGGTTAGGAAAGTGCGCT | 1.62
CCTGACGGGTCACTGACAGGTTATAGCATTTGGA | 4.19
CCTCGGAGGACAGGAGGTCAGAGCTGTCCGCTTT | 1.96
TAGACAGGGTCAAAGGCCAGAGTACGAATGTCGA | 5.99
ATCTCTAGGTAACGATAGTTCAGTGAATGCAAAT | 0.791

Data request: # query: PBM binding z-score of entry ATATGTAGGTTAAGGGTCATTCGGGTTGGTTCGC
Data returned: 6.53

Data request: # query: PBM binding z-score of entry TAATATAGGTAAATGCTAGGTGAAAGTCCGATCT
Data returned: 2.09

Data request: # query: PBM binding z-score of entry GGAACGAGGGCAAGCTGATAGCAGAGTTTGATGG
Data returned: 1.37

Data request: # query: PBM binding z-score of entry AGAATGAGGTTATGATCAGGGAAACAGAATACAT
Data returned: 2.83
